details: 293.15 K; 101.33 kPa; Liquid; Concentric cylinders viscometry
Numbers after ± are expanded uncertainties.
property_name: viscosity
Remember to follow the number with its unit.

# compound, assay_result
measured = [
    ("CCCCCCCCCCCCCC[P+](CCCCCC)(CCCCCC)CCCCCC.O=S(=O)([N-]S(=O)(=O)C(F)(F)F)C(F)(F)F", "453.64 ± 14 mPa·s"),
]

Name the recorded viscosity of the compound listed here: `CC(CC(C)(C)C)CP(=O)([O-])CC(C)CC(C)(C)C.CCCCCCCCCCCCCC[P+](CCCCCC)(CCCCCC)CCCCCC`
1918.2 ± 95 mPa·s

Name the recorded viscosity of the compound listed here: CCCCCCCCCCCCCC[P+](CCCCCC)(CCCCCC)CCCCCC.[Br-] [tetradecyltrihexylphosphonium bromide]
4421.3 ± 270 mPa·s

Name the recorded viscosity of the compound listed here: CCCCCCCCCCCCCC[P+](CCCCCC)(CCCCCC)CCCCCC.CS(=O)(=O)[O-] [trihexyltetradecylphosphonium methanesulfonate]
2022.2 ± 100 mPa·s

Name the recorded viscosity of the compound listed here: CCCCCCCCCCCCCC[P+](CCCCCC)(CCCCCC)CCCCCC.[Cl-] [trihexyl(tetradecyl)phosphonium chloride]
4030.4 ± 240 mPa·s

Name the recorded viscosity of the compound listed here: CCCCCCCCCCCCCC[P+](CCCCCC)(CCCCCC)CCCCCC.N#C[N-]C#N [tetradecyl(trihexyl)phosphonium dicyanamide]
592.93 ± 20 mPa·s

Name the recorded viscosity of the compound listed here: CCCCCCCCCC(=O)[O-].CCCCCCCCCCCCCC[P+](CCCCCC)(CCCCCC)CCCCCC [trihexyltetradecylphosphonium decanoate]
644.41 ± 23 mPa·s
